# System: Escherichia coli
# assay notes: Bactericidal activity against Escherichia coli ATCC 25922 after 18 to 24 hrs by colony counting method
# Assay type: functional
property measured: MBC (µg/mL)
Answers are plain numbers, in µg/mL.

Solved cases below.
{"compound": "O=C(O)c1cn(C2CC2)c2cc(N3CCNCC3)c(F)cc2c1=O", "measured": 50}
{"compound": "Cc1nn(-c2ccccc2)c(Cl)c1C1CC(C2C(=O)N(C)C(=O)N(C)C2=O)=NN1 (configuration not stated)", "measured": 100}
{"compound": "Cc1nn(-c2ccccc2)c(Cl)c1/C=C/C(=O)C1C(=O)N(C)C(=O)N(C)C1=O", "measured": 50}
{"compound": "Cc1nn(-c2ccccc2)c(Cl)c1C1CC(C2C(=O)NC(=S)NC2=O)=NN1 (configuration not stated)", "measured": 100}
{"compound": "Cc1nn(-c2ccccc2)c(Cl)c1/C=C/C(=O)C1C(=O)NC(=S)NC1=O", "measured": 100}

Please turn your attention to the following entry.
Bench note: what MBC did Cc1nn(-c2ccccc2)c(Cl)c1/C=C/C(=O)C1C(=O)NC(=O)NC1=O show?
50
